- tested.system: human GYS2 (Homo sapiens (Human), UniProt P54840)
- assay.text: GYS2 coupled enzyme assay (PK/LDH)
- condition.context: recombinant hGYS2/GN1 protein; geometric mean of at least 2 assay runs
assay.readout: IC50 (µM)

# molecule, readout.relation, val
records = [
    ("O=C(O)[C@H]1CCC[C@H]1C(=O)N[C@@H](c1ccccc1)c1ccc(C2CC2)c(F)c1", ">", 100),
    ("CC(C)c1ccc([C@@H](NC(=O)[C@@H]2CCC[C@@H]2C(=O)O)c2ccccc2)nc1", ">", 100),
    ("O=C(O)[C@H]1CCC[C@H]1C(=O)N[C@@H](c1ccccc1)c1ccc(C2CCC2)c(F)c1", "=", 28.6),
    ("CC(C)c1ccc([C@@H](NC(=O)[C@@H]2CCC[C@@H]2C(=O)O)c2ccccc2)cc1F", "=", 72.8),
    ("Cc1ccccc1[C@H](NC(=O)[C@@H]1CCC[C@@H]1C(=O)O)c1ccc(C(C)C)cn1", "=", 66.7),
    ("CC(C)c1ccc([C@@H](NC(=O)[C@@H]2CCC[C@@H]2C(=O)O)c2ccccc2)cc1", ">", 87.1),
    ("CC(C)c1ccc(C(NC(=O)C2CCCC2C(=O)O)c2cccs2)cc1 (single isomer, unassigned) [Compound 46]", ">", 250),
    ("Cc1ccccc1[C@H](NC(=O)[C@@H]1CCC[C@@H]1C(=O)O)c1ccc(C2CC2)cc1", "=", 15.5),
    ("CC(C)c1ccc([C@@H](NC(=O)[C@@H]2CCCC[C@@H]2C(=O)O)c2cccs2)cc1", ">", 77.6),
    ("O=C(O)[C@H]1CCC[C@H]1C(=O)N[C@@H](c1ccccc1)c1ccc(C2CCC2)cn1", ">", 100),
    ("CC(C)c1ccc(C(NC(=O)C2CCCC2C(=O)O)c2cccs2)cc1 (single isomer, unassigned) [Compound 43]", ">", 250),
    ("CC(C)c1ccc([C@@H](NC(=O)[C@@H]2CCC[C@@H]2C(=O)O)c2ccn[nH]2)cc1F", ">", 100),
    ("CC(C)c1ccc([C@@H](NC(=O)[C@@H]2CCC[C@@H]2C(=O)O)c2cccc3c2NC(=O)CC3)cc1", ">", 100),
    ("O=C(O)[C@H]1CCC[C@H]1C(=O)N[C@@H](c1ccccc1)c1ccc(C2CCC2)cc1", "=", 67.1),
    ("Cc1ccccc1[C@H](NC(=O)[C@@H]1CCC[C@@H]1C(=O)O)c1ccc(C(C)C)c(F)c1", "=", 8.48),
]

---

- tested.system: hGYS1 enzyme, glycogen synthesis in HeLa cells (Homo sapiens (Human))
- Sequence (P13807 whole entry): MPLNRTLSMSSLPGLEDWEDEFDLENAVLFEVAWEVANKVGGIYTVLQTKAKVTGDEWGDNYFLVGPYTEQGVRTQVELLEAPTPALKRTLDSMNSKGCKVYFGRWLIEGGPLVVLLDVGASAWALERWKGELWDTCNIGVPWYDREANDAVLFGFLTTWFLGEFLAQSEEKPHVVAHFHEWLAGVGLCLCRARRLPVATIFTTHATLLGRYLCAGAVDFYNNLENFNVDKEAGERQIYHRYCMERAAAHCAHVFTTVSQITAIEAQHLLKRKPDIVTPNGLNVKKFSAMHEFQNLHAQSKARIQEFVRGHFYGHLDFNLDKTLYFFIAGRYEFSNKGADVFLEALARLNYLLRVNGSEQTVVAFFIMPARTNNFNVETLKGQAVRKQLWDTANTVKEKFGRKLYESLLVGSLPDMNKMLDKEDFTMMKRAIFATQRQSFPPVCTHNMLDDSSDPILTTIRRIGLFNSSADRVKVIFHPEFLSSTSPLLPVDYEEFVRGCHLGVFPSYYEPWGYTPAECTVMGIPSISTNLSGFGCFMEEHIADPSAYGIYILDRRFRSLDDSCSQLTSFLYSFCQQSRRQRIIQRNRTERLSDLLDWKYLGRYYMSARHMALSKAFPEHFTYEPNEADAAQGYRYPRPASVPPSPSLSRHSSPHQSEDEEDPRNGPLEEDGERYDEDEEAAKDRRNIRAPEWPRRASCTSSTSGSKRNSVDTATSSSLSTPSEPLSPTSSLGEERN
- assay.text: GYS1 cell based assay (glycogen synthesis in HeLa cells, Glucose-glo)
- condition.context: starved HeLa cells, 24 h incubation; geometric mean of at least 2 assay runs; read-out: Cellular IC50

# test.smiles, readout.relation, IC50, µM
measured = [
    ("CC(C)c1ccc([C@@H](NC(=O)[C@@H]2CCC[C@@H]2C(=O)O)c2ccccc2NC(N)=O)cc1F", "=", 92),
    ("CC(C)c1ccc([C@@H](NC(=O)[C@@H]2CCC[C@@H]2C(=O)O)c2cccc3c2[nH]c(=O)n3C)cc1F", ">", 10),
    ("Cc1ccccc1[C@H](NC(=O)[C@@H]1CCC[C@@H]1C(=O)O)c1ccc(C(C)C)c(F)c1", "=", 5.36),
    ("CC(C)c1ccc([C@@H](NC(=O)[C@@H]2CCC[C@@H]2C(=O)O)c2ccn[nH]2)cc1", ">", 100),
    ("CC(C)c1ccc([C@@H](NC(=O)[C@@H]2CCC[C@@H]2C(=O)O)c2ccccc2)cc1F", "=", 3.69),
    ("O=C(O)[C@H]1CCC[C@H]1C(=O)N[C@@H](c1ccccc1)c1ccc(C2CC2)c(F)c1", "=", 27.3),
    ("Cc1ccccc1[C@H](NC(=O)[C@@H]1CCC[C@@H]1C(=O)O)c1ccc(C(C)C)cn1", "=", 13.9),
]

---

- tested.system: human GYS1 (Homo sapiens (Human), UniProt P13807)
- Sequence (P13807 whole entry): as above
- Sequence (P46976 whole entry partner): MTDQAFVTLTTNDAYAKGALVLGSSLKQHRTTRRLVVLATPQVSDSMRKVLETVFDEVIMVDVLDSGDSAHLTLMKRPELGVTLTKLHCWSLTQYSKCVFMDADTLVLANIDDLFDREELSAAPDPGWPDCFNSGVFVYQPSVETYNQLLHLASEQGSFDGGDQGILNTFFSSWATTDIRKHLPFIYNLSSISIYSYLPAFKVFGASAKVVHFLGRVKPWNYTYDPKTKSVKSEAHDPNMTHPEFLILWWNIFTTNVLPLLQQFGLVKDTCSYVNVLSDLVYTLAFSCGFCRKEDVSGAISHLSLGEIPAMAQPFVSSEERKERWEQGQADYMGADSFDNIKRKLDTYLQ
- assay.text: GYS1 coupled enzyme assay (PK/LDH)
- condition.context: recombinant hGYS1/GN1 protein; geometric mean of at least 2 assay runs
IC50: recorded values
assay.readout: IC50 (nM)

# test.smiles, tested.system, val
records = [
    ("CC(C)c1ccc([C@@H](NC(=O)[C@@H]2CCC[C@@H]2C(=O)O)c2cccc(-c3ccno3)c2)nc1F", "human GYS1 (Homo sapiens (Human), UniProt P13807)", 630),
    ("CC(C)c1ccc([C@@H](NC(=O)[C@@H]2CCC[C@@H]2C(=O)O)c2cccnc2N)cc1", "human GYS1 (Homo sapiens (Human), UniProt P13807)", 1520),
    ("O=C(O)[C@H]1CCC[C@H]1C(=O)N[C@@H](c1ccccc1)c1ccc(C2CCC2)c(F)c1", "human GYS1 (Homo sapiens (Human), UniProt P13807)", 384),
    ("O=C(O)[C@H]1CCC[C@H]1C(=O)N[C@@H](c1ccccc1)c1ccc(C2CCC2)cc1", "human GYS1 (Homo sapiens (Human), UniProt P13807)", 426),
]

---

// values below are reported IC50
- tested.system: human GYS1 (Homo sapiens (Human), UniProt P13807)
- assay.text: GYS1 coupled enzyme assay (PK/LDH)
- condition.context: recombinant hGYS1/GN1 protein; geometric mean of at least 2 assay runs

# compound, IC50
rows = [
    ("CC(C)c1ccc([C@@H](NC(=O)C2CC(O)CC2C(=O)O)c2ccccc2)cc1 (single isomer, unassigned) [Compound 16]", "836 nM"),
    ("CC(C)c1ccc([C@@H](NC(=O)C2CC(O)CC2C(=O)O)c2ccccc2)cc1 (single isomer, unassigned) [Compound 21]", "1960 nM"),
    ("Cc1ccccc1[C@H](NC(=O)[C@@H]1CCC[C@@H]1C(=O)O)c1ccc(C(C)C)c(F)c1 [Compound 23]", "166 nM"),
]

---

- tested.system: human GYS1 (Homo sapiens (Human))
- assay.text: GYS1 coupled enzyme assay (PK/LDH)
- condition.context: recombinant hGYS1/GN1 protein; geometric mean of at least 2 assay runs
pIC50: −log10 of the molar value.
assay.readout: pIC50

# compound, assay.readout, val
records = [
    ("CC(C)c1ccc([C@@H](NC(=O)[C@@H]2CCC[C@@H]2C(=O)O)c2cccc3c2NC(=O)CC3)cc1", "pIC50", 5.96),
    ("CC(C)c1ccc([C@@H](NC(=O)[C@@H]2CCC[C@@H]2C(=O)O)c2cccc3c2NC(=O)C3)cc1", "pIC50", 5.79),
    ("CC(C)c1ccc([C@@H](NC(=O)C2CC(NC(=O)OC(C)(C)C)CC2C(=O)O)c2ccccc2)cc1 (single isomer, unassigned)", "pIC50", 5.71),
    ("CC(C)c1ccc([C@@H](NC(=O)[C@@H]2CCC[C@@H]2C(=O)O)c2cccc(-c3ccn[nH]3)c2)nc1F", "pIC50", 6.75),
    ("CC(C)c1ccc([C@@H](NC(=O)[C@@H]2CCC[C@@H]2C(=O)O)c2cccc3[nH]c(=O)oc23)cc1", "pIC50", 6.06),
    ("CC(C)c1ccc([C@@H](NC(=O)[C@@H]2CCC[C@@H]2C(=O)O)c2cccs2)cc1", "pIC50", 6.44),
    ("CC(C)c1ccc([C@@H](NC(=O)[C@@H]2CCC[C@@H]2C(=O)O)c2cccc(-c3ccnn3C)c2)nc1F", "pIC50", 5.84),
    ("CC(C)c1ccc([C@@H](NC(=O)[C@@H]2CCC[C@@H]2C(=O)O)c2ccn[nH]2)cc1F", "pIC50", 5.83),
    ("O=C(O)[C@H]1CCC[C@H]1C(=O)N[C@@H](c1ccccc1)c1ccc(C2CC2)cc1", "pIC50", 5.95),
    ("O=C(O)[C@H]1CCC[C@H]1C(=O)N[C@@H](c1ccccc1)c1ccc(C2CCC2)cn1", "pIC50", 6.30),
    ("CC(C)c1c(F)cc([C@@H](NC(=O)[C@@H]2CCC[C@@H]2C(=O)O)c2ccccc2)cc1F", "pIC50", 6.62),
    ("Cc1ccccc1[C@H](NC(=O)[C@@H]1CCC[C@@H]1C(=O)O)c1ccc(C(C)C)cc1", "pIC50", 6.41),
    ("O=C(O)[C@H]1CCC[C@H]1C(=O)N[C@@H](c1ccccc1)c1ccc(C2CC2)c(F)n1", "pIC50", 6.57),
    ("CC(C)c1ccc([C@@H](NC(=O)[C@@H]2CCC[C@@H]2C(=O)O)c2cccc(-c3cnco3)c2)nc1F", "pIC50", 6.37),
    ("CC(C)c1ccc([C@@H](NC(=O)C2CC(F)CC2C(=O)O)c2ccccc2)cc1 (single isomer, unassigned)", "pIC50", 5.94),
]
